assay_comment: yeast display, Sf9 membrane polyspecificity reagent, FACS + sequencing; frameworks hold sequencing errors
reported_endpoint: polyreactivity (PSR sort gate)

INSERT INTO assay_data (seq_string, observed) VALUES
  ('QVQLVESGGGLVQAGGSLRLSCAASGLTFDKYTMGWYRQAPGKERELVARISTSGSRTYYADSVKGRFTISRDIAKNTVYLQMNSLKPEDTAVYYCNKDGWIRRRRGYDYWGQGTQVTVSS', 'high polyreactivity'),
  ('QVQLVESGGGLVQAGGSLRLSCAASGRTFRRYAMGWYRQAPGKERELVAAISWGAGSTRYADSVKGRFTISRDNAKNTVYLQMNSLKPEDTAVYYCAAENTRAYGMYYWGQGTQVTVSS', 'high polyreactivity'),
  ('QVQLVESGGGLVQAGGSLRLICSASGTTFPVYVMGRYRHAPGKERELVAAISRSGTSTYYADSVKGRFTISRDNAKNTVYLQMNSLKPEDTAVYYCAAQLYGHGEDYWGQGTQVTVSS', 'high polyreactivity'),
  ('QVQLVESGGGLVQAGGSLRLSCAASGITSRQYAMGWYRQAPGKERELVAAISFSGGRTYYADSVKGRFTISRDNAKNTVYLQMNSLKPEVTAVYYCATRNRYSPRDYWGQGTQVTVSS', 'high polyreactivity'),
  ('QVQLVESGGGLVQAGGSLRLSCAASGCTSTSNAMGWYRQAPGKERELVALISSGGSTYYAVSVKGRFTISRDNAKNTVYLQMNSLKQEDTAVYYCAARRGTGSYSYRYPYGYDYWGQGTQVTVSS', 'low polyreactivity'),
  ('QVQLVESGGGLVQAGGSLRLSCAASGRTFKYYAMGWYRQAPGIEREFVAAITVSGGSTYYADSVKGRFTISRDNAKNPVYLQMNSLKPEDTAVYYCAARYQRYSSKTIQNEDYWGQGTQVTVSS', 'high polyreactivity'),
  ('QVQLVESGGGIVQAGGSLRLISAASGRTYKSYTIGWYRQAPGKEREFVAAISSRGGNTYYADSVKGRFTISRDNAKNTVYLQMNSLKPEDTAVYYCAARYGYSYDRRDYWGQGTQVTVSS', 'high polyreactivity'),
  ('QVQLVESGGGLVQAGGSLRLSCAASGSILQINPMGWYRPAPAKERDLVAANDWGGGDTYYADSVKGRFTIARDNAKNTVYVQMISLKTEDTAVYYCAAEGVSWYVWDFYDIYGYWGHGTQVTVSS', 'high polyreactivity'),
  ('QVQHVESGRGLVQAGGSLRLSCAASGGTFNRYAMGWYRQAPGKERELVAAITSSGGSTYYADSVKGRFTISRDNAMNTVYLHMNSLNPEDTAVYYCNAPGFRRLWGLGYDYWGQGTQVTVSS', 'high polyreactivity'),
  ('QVQLVESGGGLVQAGGSLRLSCAASGRTFWGNAMGWYRQAPGKERELVASISSRGSSTYYADSVKGRFTISRDNAKNTVYLQMNSLKPEDTAVYYCAARTHYFPWPWYVWDYDSWGQGTQVTVSS', 'low polyreactivity'),
  ('QVQLVESGGGLVQAGGSLRLSCAASGLIFRGYAMGWYRQAPGKERELVAAISTTGGSTFYADSVKGRFTISRDNAKNTVYLQMNSLKREDTAVYYCNADWAPTGFSGGYPYDYWGQGTQVTVSS', 'high polyreactivity');

###

assay_comment: yeast display, Sf9 membrane polyspecificity reagent, FACS + sequencing; frameworks hold sequencing errors
reported_endpoint: polyreactivity (PSR sort gate)

INSERT INTO results (seq_string, observed) VALUES
  ('QDQHVESGGGLVQAGGSLRLSGADSGSIFLLYAMGCYRQAPGKERELVAAISTRDGSTYYADSVKGRFTISRDNAKNTVYLQMNSLKPEDTAVYYCATLYSYNYWGQGTQVTVSS', 'high polyreactivity'),
  ('QVQLVESGGGLVQAGGSLRLSCAASGFTFAHNAMGWYRQATGKERELVAVISWSGGRTYYADSVKGRFTISRDNAMNTVYLQMNSLKPEDTAVYYCATRHSKFSYGYWGQGTQVTVSS', 'high polyreactivity'),
  ('QFQLVESGGGLVQAGGSLRLRCAASGQTFRYYAMGWYRQAPGKERELVAAITRRGSTYYADSVKGRFTISRDNAKNTVNLQINSLKPEDTAVYYCATVTGFHSSPLRDLDYWGQGTQVTVSS', 'high polyreactivity'),
  ('QVQHVESGGGLFQAGGSLRLSCAASGITFEYYAMGWYRQAPGKERELVAAISGDGSTYYADSVKGRFTISRDNAKNTVYLQMNSLKPEDTAVYYCAAVYYRGFLYYRYYYWGQGTQVTVSS', 'high polyreactivity'),
  ('QVQLVESGGGLVQAGGSLRLSCAAYGINFYKYAMVWSRQAPGQERELVASITKSAGSTNYADSDKGRFTISRDNAMNTVYLQMNSLKPEDTAVYYCAARRFTFNLFDYWGQGTQVTVSS', 'high polyreactivity'),
  ('QVQLVESGGGLVQAGGSLRLSCAASGSTFHLYAMGWYRQAPGKEREIVAAIRGRGGNTYADSVKGRFTISRDNAKNTVYLQMNSLKPEDTAVYYCAAPLLRDLRSPYSYNYWGQGTQVTVSS', 'low polyreactivity'),
  ('QVQLVESGGGLVQAGGSLRLSCAASGSIFRAYAMGWYRQAPGKERELVAAINWTDGSTYYADSVKGRFTISRDKAKNTVYLQMNSLKPEDTAVYYCAKDSIARHNYWGQGTQVTVSS', 'low polyreactivity'),
  ('QVQLVESGGGLVQAGGSLRLSCAAYGSIFSGYTMGCYRQAPGKERELVAAITQRGTRTYYADSVKGRFTISRDNAKNTVYLQMNSLKPEDTAVYYCAAVRSYYSNRGYDYWGQGTQVTVSS', 'high polyreactivity'),
  ('QVQLVESGGGLVQAGGSLRLSCAASGRIFRGYAMGWYRQAPGKERELVAAISQSGSSTYYADSVKGRFTISRDNAKNTVYLQMNSLKPEDTAVYYCAVKYLKHFGYWGQGTQVTVSS', 'high polyreactivity'),
  ('QVQLVESGGGLVQAGGSLRLSCAASGSTFSRNAMGWSRQAPGKERELVAAISRRGGTTNYADSVKGRFTISRDNAKNTVYLQMNSLKPEDTAVYYCNAQPGDYWGQGTQVTVSS', 'high polyreactivity'),
  ('QVQLVESGGGLVQAGGSLRLSCAASGLTFVWYAMGWYRQAPGKDRELVAAITLSGGSTYYADSGKGRFTISRDNAKNTVYLQMNSLIPEDTAVYYCAADGTYRPEDYDYWGQGTQVTVSS', 'low polyreactivity');

Origin of the recorded values: the nanobody polyreactivity screen of Harvey et al. (2022)
